# key: entry, value: melting temperature
System: HeLa Kyoto
Assay: melting temperature (median over replicates), in situ; higher = more thermally stable
Conditions: cell cycle stage: mitosis

| POLYMER SEQUENCE | UNIT LABEL | melting temperature |
| --- | --- | --- |
| MGCFFSKRRKADKESRPENEEERPKQYSWDQREKVDPKDYMFSGLKDETVGRLPGTVAGQQFLIQDCENCNIYIFDHSATVTIDDCTNCIIFLGPVKGSVFFRNCRDCKCTLACQQFRVRDCRKLEVFLCCATQPIIESSSNIKFGCFQWYYPELAFQFKDAGLSIFNNTWSNIHDFTPVSGELNWSLLPEDAVVQDYVPIPTTEELKAVRVSTEANRSIVPISRGQRQKSSDESCLVVLFAGDYTIANARKLIDEMVGKGFFLVQTKEVSMKAEDAQRVFREKAPDFLPLLNKGPVIALEFNGDGAVEVCQLIVNEIFNGTKMFVSESKETASGDVDSFYNFADIQMGI [RP2] | °C | 51.1 |
| MDRSAEFRKWKAQCLSKADLSRKGSVDEDVVELVQFLNMRDQFFTTSSCAGRILLLDRGINGFEVQKQNCCWLLVTHKLCVKDDVIVALKKANGDATLKFEPFVLHVQCRQLQDAQILHSMAIDSGFRNSGITVGKRGKTMLAVRSTHGLEVPLSHKGKLMVTEEYIDFLLNVANQKMEENKKRIERFYNCLQHALERETMTNLHPKIKEKNNSSYIHKKKRNPEKTRAQCITKESDEELENDDDDDLGINVTIFPEDY [TYW3] | °C | 54.9 |
| MALASVLERPLPVNQRGFFGLGGRADLLDLGPGSLSDGLSLAAPGWGVPEEPGIEMLHGTTTLAFKFRHGVIVAADSRATAGAYIASQTVKKVIEINPYLLGTMAGGAADCSFWERLLARQCRIYELRNKERISVAAASKLLANMVYQYKGMGLSMGTMICGWDKRGPGLYYVDSEGNRISGATFSVGSGSVYAYGVMDRGYSYDLEVEQAYDLARRAIYQATYRDAYSGGAVNLYHVREDGWIRVSSDNVADLHEKYSGSTP [PSMB5] | °C | 61.5 |
| MALNKNHSEGGGVIVNNTESILMSYDHVELTFNDMKNVPEAFKGTKKGTVYLTPYRVIFLSKGKDAMQSFMMPFYLMKDCEIKQPVFGANYIKGTVKAEAGGGWEGSASYKLTFTAGGAIEFGQRMLQVASQASRGEVPSGAYGYSYMPSGAYVYPPPVANGMYPCPPGYPYPPPPPEFYPGPPMMDGAMGYVQPPPPPYPGPMEPPVSGPDVPSTPAAEAKAAEAAASAYYNPGNPHNVYMPTSQPPPPPYYPPEDKKTQ [WBP2] | °C | 54.5 |
| MGEKSENCGVPEDLLNGLKVTDTQEAECAGPPVPDPKNQHSQSKLLRDDEAHLQEDQGEEECFHDCSASFEEEPGADKVENKSNEDVNSSELDEEYLIELEKNMSDEEKQKRREESTRLKEEGNEQFKKGDYIEAESSYSRALEMCPSCFQKERSILFSNRAAARMKQDKKEMAINDCSKAIQLNPSYIRAILRRAELYEKTDKLDEALEDYKSILEKDPSIHQAREACMRLPKQIEERNERLKEEMLGKLKDLGNLVLRPFGLSTENFQIKQDSSTGSYSINFVQNPNNNR [TTC1] | °C | 56.4 |

---

System: HeLa Kyoto
Test: thermal stability score vs G1/S (z-score of summed log2 fold changes over temperatures); higher = more thermally stable than in G1/S
Details: cell cycle stage: early G1 (4.5 h after nocodazole release)
RECORDED METRIC: thermal stability score

| POLYMER SEQUENCE | STUDY SYSTEM | RESULT NUMBER |
| --- | --- | --- |
| METVISSDSSPAVENEHPQETPESNNSVYTSFMKSHRCYDLIPTSSKLVVFDTSLQVKKAFFALVTNGVRAAPLWDSKKQSFVGMLTITDFINILHRYYKSALVQIYELEEHKIETWREVYLQDSFKPLVCISPNASLFDAVSSLIRNKIHRLPVIDPESGNTLYILTHKRILKFLKLFITEFPKPEFMSKSLEELQIGTYANIAMVRTTTPVYVALGIFVQHRVSALPVVDEKGRVVDIYSKFDVINLAAEKTYNNLDVSVTKALQHRSHYFEGVLKCYLHETLETIINRLVEAEVHRLVVVDENDVVKGIVSLSDILQALVLTGGEKKP [PRKAG1] | HeLa Kyoto | 0.779 |

---

System: HeLa Kyoto
Assay: melting temperature (median over replicates), in situ; higher = more thermally stable
Settings: cell cycle stage: G1/S
RECORDED METRIC: melting temperature

| POLYMER SEQUENCE | STUDY SYSTEM | RESULT |
| --- | --- | --- |
| MDVNIAPLRAWDDFFPGSDRFARPDFRDISKWNNRVVSNLLYYQTNYLVVAAMMISIVGFLSPFNMILGGIVVVLVFTGFVWAAHNKDVLRRMKKRYPTTFVMVVMLASYFLISMFGGVMVFVFGITFPLLLMFIHASLRLRNLKNKLENKMEGIGLKRTPMGIVLDALEQQEEGINRLTDYISKVKE [ARL6IP5] | HeLa Kyoto | 56.4 °C |
| MAYQSLRLEYLQIPPVSRAYTTACVLTTAAVQLELITPFQLYFNPELIFKHFQIWRLITNFLFFGPVGFNFLFNMIFLYRYCRMLEEGSFRGRTADFVFMFLFGGFLMTLFGLFVSLVFLGQAFTIMLVYVWSRRNPYVRMNFFGLLNFQAPFLPWVLMGFSLLLGNSIIVDLLGIAVGHIYFFLEDVFPNQPGGIRILKTPSILKAIFDTPDEDPNYNPLPEERPGGFAWGEGQRLGG [DERL2] | HeLa Kyoto | 54.4 °C |
| MRHLPYFCRGQVVRGFGRGSKQLGIPTANFPEQVVDNLPADISTGIYYGWASVGSGDVHKMVVSIGWNPYYKNTKKSMETHIMHTFKEDFYGEILNVAIVGYLRPEKNFDSLESLISAIQGDIEEAKKRLELPEHLKIKEDNFFQVSKSKIMNGH [RFK] | HeLa Kyoto | 52.7 °C |
| MATKGGTVKAASGFNAMEDAQTLRKAMKGLGTDEDAIISVLAYRNTAQRQEIRTAYKSTIGRDLIDDLKSELSGNFEQVIVGMMTPTVLYDVQELRRAMKGAGTDEGCLIEILASRTPEEIRRISQTYQQQYGRSLEDDIRSDTSFMFQRVLVSLSAGGRDEGNYLDDALVRQDAQDLYEAGEKKWGTDEVKFLTVLCSRNRNHLLHVFDEYKRISQKDIEQSIKSETSGSFEDALLAIVKCMRNKSAYFAEKLYKSMKGLGTDDNTLIRVMVSRAEIDMLDIRAHFKRLYGKSLYSFIKGDTSGDYRKVLLVLCGGDD [ANXA4] | HeLa Kyoto | 50.1 °C |

---

System: HeLa Kyoto
Test: melting temperature (median over replicates), in situ; higher = more thermally stable
Settings: cell cycle stage: G1/S
# key: entry, value: melting temperature

| POLYMER SEQUENCE | UNIT LABEL | melting temperature |
| --- | --- | --- |
| MAEISDLDRQIEQLRRCELIKESEVKALCAKAREILVEESNVQRVDSPVTVCGDIHGQFYDLKELFRVGGDVPETNYLFMGDFVDRGFYSVETFLLLLALKVRYPDRITLIRGNHESRQITQVYGFYDECLRKYGSVTVWRYCTEIFDYLSLSAIIDGKIFCVHGGLSPSIQTLDQIRTIDRKQEVPHDGPMCDLLWSDPEDTTGWGVSPRGAGYLFGSDVVAQFNAANDIDMICRAHQLVMEGYKWHFNETVLTVWSAPNYCYRCGNVAAILELDEHLQKDFIIFEAAPQETRGIPSKKPVADYFL [PPP4C] | °C | 54.8 |
| MAAAGWRDGSGQEKYRLVVVGGGGVGKSALTIQFIQSYFVTDYDPTIEDSYTKQCVIDDRAARLDILDTAGQEEFGAMREQYMRTGEGFLLVFSVTDRGSFEEIYKFQRQILRVKDRDEFPMILIGNKADLDHQRQVTQEEGQQLARQLKVTYMEASAKIRMNVDQAFHELVRVIRKFQEQECPPSPEPTRKEKDKKGCHCVIF [RRAS2] | °C | 55.4 |

---

System: HeLa Kyoto
Experiment: thermal stability score vs G1/S (z-score of summed log2 fold changes over temperatures); higher = more thermally stable than in G1/S
Settings: cell cycle stage: early G1 (4.5 h after nocodazole release)

| SUBSTANCE | thermal stability score |
| --- | --- |
| MPGPAAGSRARVYAEVNSLRSREYWDYEAHVPSWGNQDDYQLVRKLGRGKYSEVFEAINITNNERVVVKILKPVKKKKIKREVKILENLRGGTNIIKLIDTVKDPVSKTPALVFEYINNTDFKQLYQILTDFDIRFYMYELLKALDYCHSKGIMHRDVKPHNVMIDHQQKKLRLIDWGLAEFYHPAQEYNVRVASRYFKGPELLVDYQMYDYSLDMWSLGCMLASMIFRREPFFHGQDNYDQLVRIAKVLGTEELYGYLKKYHIDLDPHFNDILGQHSRKRWENFIHSENRHLVSPEALDLLDKLLRYDHQQRLTAKEAMEHPYFYPVVKEQSQPCADNAVLSSGLTAAR [CSNK2A2] | 1.94 |
| MAPKGSSKQQSEEDLLLQDFSRNLSAKSSALFFGNAFIVSAIPIWLYWRIWHMDLIQSAVLYSVMTLVSTYLVAFAYKNVKFVLKHKVAQKREDAVSKEVTRKLSEADNRKMSRKEKDERILWKKNEVADYEATTFSIFYNNTLFLVVVIVASFFILKNFNPTVNYILSISASSGLIALLSTGSK [SSR3] | 1.59 |
| MTDYGEEQRNELEALESIYPDSFTVLSENPPSFTITVTSEAGENDETVQTTLKFTYSEKYPDEAPLYEIFSQENLEDNDVSDILKLLALQAEENLGMVMIFTLVTAVQEKLNEIVDQIKTRREEEKKQKEKEAEEAEKQLFHGTPVTIENFLNWKAKFDAELLEIKKKRMKEEEQAGKNKLSGKQLFETDHNLDTSDIQFLEDAGNNVEVDESLFQEMDDLELEDDEDDPDYNPADPESDSAD [RWDD1] | 0.855 |
| MVVFGYEAGTKPRDSGVVPVGTEEAPKVFKMAASMHGQPSPSLEDAKLRRPMVIEIIEKNFDYLRKEMTQNIYQMATFGTTAGFSGIFSNFLFRRCFKVKHDALKTYASLATLPFLSTVVTDKLFVIDALYSDNISKENCVFRSSLIGIVCGVFYPSSLAFTKNGRLATKYHTVPLPPKGRVLIHWMTLCQTQMKLMAIPLVFQIMFGILNGLYHYAVFEETLEKTIHEE [TMEM126B] | 0.469 |
| MDQCVTVERELEKVLHKFSGYGQLCERGLEELIDYTGGLKHEILQSHGQDAELSGTLSLVLTQCCKRIKDTVQKLASDHKDIHSSVSRVGKAIDKNFDSDISSVGIDGCWQADSQRLLNEVMVEHFFRQGMLDVAEELCQESGLSVDPSQKEPFVELNRILEALKVRVLRPALEWAVSNREMLIAQNSSLEFKLHRLYFISLLMGGTTNQREALQYAKNFQPFALNHQKDIQVLMGSLVYLRQGIENSPYVHLLDANQWADICDIFTRDACALLGLSVESPLSVSFSAGCVALPALINIKAVIEQRQCTGVWNQKDELPIEVDLGKKCWYHSIFACPILRQQTTDNNPPMKLVCGHIISRDALNKMFNGSKLKCPYCPMEQSPGDAKQIFF [RMND5A] | 0.294 |
| MPGVKLTTQAYCKMVLHGAKYPHCAVNGLLVAEKQKPRKEHLPLGGPGAHHTLFVDCIPLFHGTLALAPMLEVALTLIDSWCKDHSYVIAGYYQANERVKDASPNQVAEKVASRIAEGFSDTALIMVDNTKFTMDCVAPTIHVYEHHENRWRCRDPHHDYCEDWPEAQRISASLLDSRSYETLVDFDNHLDDIRNDWTNPEINKAVLHLC [EMC8] | -1.83 |
| MLGLLVALLALGLAVFALLDVWYLVRLPCAVLRARLLQPRVRDLLAEQRFPGRVLPSDLDLLLHMNNARYLREADFARVAHLTRCGVLGALRELRAHTVLAASCARHRRSLRLLEPFEVRTRLLGWDDRAFYLEARFVSLRDGFVCALLRFRQHLLGTSPERVVQHLCQRRVEPPELPADLQHWISYNEASSQLLRMESGLSDVTKDQ [THEM6] | -1.92 |
| RALGAPA1 | -0.328 |
| MTTLDDKLLGEKLQYYYSSSEDEDSDHEDKDRGRCAPASSSVPAEAELAGEGISVNTGPKGVINDWRRFKQLETEQREEQCREMERLIKKLSMTCRSHLDEEEEQQKQKDLQEKISGKMTLKEFAIMNEDQDDEEFLQQYRKQRMEEMRQQLHKGPQFKQVFEISSGEGFLDMIDKEQKSIVIMVHIYEDGIPGTEAMNGCMICLAAEYPAVKFCKVKSSVIGASSQFTRNALPALLIYKGGELIGNFVRVTDQLGDDFFAVDLEAFLQEFGLLPEKEVLVLTSVRNSATCHSEDSDLEID [PDCL] | 0.206 |
| MAGNFDSEERSSWYWGRLSRQEAVALLQGQRHGVFLVRDSSTSPGDYVLSVSENSRVSHYIINSSGPRPPVPPSPAQPPPGVSPSRLRIGDQEFDSLPALLEFYKIHYLDTTTLIEPVSRSRQGSGVILRQEEAEYVRALFDFNGNDEEDLPFKKGDILRIRDKPEEQWWNAEDSEGKRGMIPVPYVEKYRPASASVSALIGGNQEGSHPQPLGGPEPGPYAQPSVNTPLPNLQNGPIYARVIQKRVPNAYDKTALALEVGELVKVTKINVSGQWEGECNGKRGHFPFTHVRLLDQQNPDEDFS [CRK] | -0.547 |
| MASLLAKDAYLQSLAKKICSHSAPEQQARTRAGKTQGSETAGPPKKKRKKTQKKFRKREEKAAEHKAKSLGEKSPAASGARRPEAAKEEAAWASSSAGNPADGLATEPESVFALDVLRQRLHEKIQEARGQGSAKELSPAALEKRRRRKQERDRKKRKRKELRAKEKARKAEEATEAQEVVEATPEGACTEPREPPGLIFNKVEVSEDEPASKAQRRKEKRQRVKGNLTPLTGRNYRQLLERLQARQSRLDELRGQDEGKAQELEAKMKWTNLLYKAEGVKIRDDERLLQEALKRKEKRRAQRQRRWEKRTAGVVEKMQQRQDRRRQNLRRKKAARAERRLLRARKKGRILPQDLERAGLV [SURF6] | -2.48 |
